Molecular target: T1, human CD39 protein (recombinant) (human, UniProt P49961 38-478, limits assumed)
T1 construct: Soluble recombinant protein coated on ELISA plates and used in the protein-based ATPase assay; also called recombinant CD39 protein; recombinant purified human CD39 protein
T1 sequence: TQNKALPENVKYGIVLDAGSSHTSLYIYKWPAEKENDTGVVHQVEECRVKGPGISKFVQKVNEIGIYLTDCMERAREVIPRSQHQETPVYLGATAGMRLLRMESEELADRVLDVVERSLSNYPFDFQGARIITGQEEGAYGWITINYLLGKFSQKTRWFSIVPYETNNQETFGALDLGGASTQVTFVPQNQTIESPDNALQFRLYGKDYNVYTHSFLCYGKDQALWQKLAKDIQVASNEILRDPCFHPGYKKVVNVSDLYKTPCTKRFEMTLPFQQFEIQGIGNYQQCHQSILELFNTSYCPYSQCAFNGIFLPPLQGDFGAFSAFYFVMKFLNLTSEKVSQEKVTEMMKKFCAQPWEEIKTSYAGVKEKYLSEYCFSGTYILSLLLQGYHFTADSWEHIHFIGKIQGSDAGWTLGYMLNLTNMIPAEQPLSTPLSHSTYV
Assay: ELISA on coated human CD39 protein
Below is a list of entries, each paired with its recorded EC50 value.
Answer with a number only, understood to be in µg/mL.

EM0004-38c (antibody, human IgG1, kappa, L234A L235A, V domains shown, chimeric mAb638; also called EM04-38c) VH: QVQLQQPGTELVKPGASVKLSCKASGYTFTSFWMHWVKQRPGQGLEWIGNINPRNGATKYNEKFRSKVTLTADKTSSTAYMHLSSLTSEDSAVYYCAREDYDEIYYAMDSWGQGTSVTVSS VL: QNVLTQSPAIMSASPGEKVTMTCSASSSVIYMYWFQQKPGSSPRVLIYDTSNLASGVPARFSGSGSGTSYSLTISRMEAEDAATYYCQQWSTYPLTFGAGTKLELKR: 0.014

Form field: reported EC50 of HuEM0004-38-20 (antibody, human IgG1, kappa, L234A L235A, V domains shown, humanized mAb638, human IgG1/kappa) VH: EVQLVQSGAEVKKPGASVKVSCKASGYTFTSFWMHWVRQAPGQGLEWIGNINPRNGATKYNEKFRSKVTLTADKSISTAYMELSRLRSDDTAVYYCAREDYDEIYYAMDSWGQGTTVTVSS VL: ENVLTQSPATLSLSPGERATLSCSASSSVIYMYWFQQKPGQSPRVLIYDTSNLASGVPARFSGSGSGTDYTLTISSLEPEDFAVYYCQQWSTYPLTFGQGTKLEIKR
0.031
